Quick reference for IC50 among some compounds
targetUnderTest: K-Ras G13C (Homo sapiens (Human), UniProt P01116+P62937, G13C)
Sequence (P01116-2 other isoform, or with tags, fused parts or gaps G13C, one chain of several): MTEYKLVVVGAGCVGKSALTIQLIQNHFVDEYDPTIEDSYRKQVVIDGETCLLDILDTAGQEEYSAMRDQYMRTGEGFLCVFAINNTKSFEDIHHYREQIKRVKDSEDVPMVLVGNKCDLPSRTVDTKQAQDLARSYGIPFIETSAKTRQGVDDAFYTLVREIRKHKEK
assaySummary: Ras-Raf (BRAF RBD) disruption / FRET / MOA assay, KRAS G13C
Type: biochemical
conditionNotes: KRAS G13C; Ras-Raf disruption/FRET/MOA assay; read-out: IC50* KRAS G13C FRET data

C=CC(=O)N1CC2(C1)OCCN2C(=O)N(C)[C@H](C(=O)N[C@H]1Cc2nc(cs2)-c2ccc3c(c2)c(c(-c2cccnc2[C@H](C)OC)n3CC)CC(C)(C)COC(=O)[C@@H]2CCCN(N2)C1=O)C(C)C (atropisomer, axis not shown); 100 to 1000 nM
CCn1c(-c2cccnc2[C@H](C)OC)c2c3cc(ccc31)-c1csc(n1)C[C@H](NC(=O)[C@H](C(C)C)N1CCC3(CCN(C(=O)C#CC(C)(C)N(C)C)CC3)C1=O)C(=O)N1CCC[C@H](N1)C(=O)OCC(C)(C)C2 (atropisomer, axis not shown); 100 to 1000 nM

Could you now look at the following compound, please?
Output measured IC50 for this item: `C=CC(=O)N1CC[C@H](C(=O)N(C)[C@H](C(=O)N[C@@H]2C(=O)N3CCC[C@H](N3)C(=O)OCC(C)(C)Cc3c(-c4cncnc4)n(CC)c4ccc(cc34)-c3cccc(c3)[C@H]2OC)C(C)C)C1` > 10000 nM

* * *

targetUnderTest: KRAS G12D (Homo sapiens (Human), UniProt P01116+P62937, G12D)
Sequence (P01116-2 other isoform, or with tags, fused parts or gaps G12D): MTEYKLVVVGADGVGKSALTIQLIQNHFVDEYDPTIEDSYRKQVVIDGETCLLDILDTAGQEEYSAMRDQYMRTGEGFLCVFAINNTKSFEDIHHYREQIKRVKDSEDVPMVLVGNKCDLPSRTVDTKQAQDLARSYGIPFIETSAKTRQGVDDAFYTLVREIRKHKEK
Sequence (P62937 whole entry): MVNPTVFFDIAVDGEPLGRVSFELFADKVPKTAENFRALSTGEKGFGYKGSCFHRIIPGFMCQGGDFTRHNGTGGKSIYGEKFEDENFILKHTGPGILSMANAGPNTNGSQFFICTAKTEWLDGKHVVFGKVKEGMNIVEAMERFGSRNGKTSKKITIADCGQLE
assaySummary: Ras-Raf (BRAF RBD) disruption / FRET / MOA assay, KRAS G12D
Format: biochemical
conditionNotes: Ras-Raf disruption/FRET/MOA assay; class symbols; read-out: KRAS G12D FRET data IC50
pIC50: −log10 of the molar value.
Quick reference for pIC50 among some compounds

# annotated cases, reported pIC50 shown
C=CC(=O)N1CC[C@H](C(=O)N(C)[C@H](C(=O)N[C@H]2Cc3cccc(c3)-c3ccc4c(c3)c(c(-c3cccnc3[C@H](C)OC)n4CC)CC(C)(C)COC(=O)[C@@H]3CCCN(N3)C2=O)C2CCC2)C1 (atropisomer, axis not shown); < 5.00
CCn1c(-c2cccnc2[C@H](C)OC)c2c3cc(ccc31)-c1cccc(c1)C[C@H](NC(=O)[C@H](C(C)C)N1CC[C@@]3(CCN(C(=O)C#C[C@H]4COCCN4C4COC4)C3)C1=O)C(=O)N1CCC[C@H](N1)C(=O)OCC(C)(C)C2 (atropisomer, axis not shown); 5.00 to 6.00
CCn1c(-c2cccnc2[C@H](C)OC)c2c3cc(ccc31)-c1cc(cc(C(F)F)c1)C[C@H](NC(=O)C(COC1CN(C(=O)C#CC(C)(C)N(C)C)C1)C(C)C)C(=O)N1CCC[C@H](N1)C(=O)OCC(C)(C)C2 (mixture of isomers); < 5.00
CCn1c(-c2cccnc2[C@H](C)OC)c2c3cc(ccc31)-c1csc(n1)C[C@H](NC(=O)CN1CC[C@@]3(CCN(C(=O)C#CC(C)(C)N4CCC4)C3)C1)C(=O)N1CCC[C@H](N1)C(=O)OCC(C)(C)C2 (atropisomer, axis not shown); < 5.00
C=CC(=O)N1CC[C@H](C(=O)N(C)[C@H](C(=O)N[C@H]2Cc3cc(O)cc(c3)-c3ccc4c(c3)c(c(-c3ccc5c(c3)CCN(C)C5)n4CC)CC(C)(C)COC(=O)[C@@H]3CCCN(N3)C2=O)C(C)C)C1; < 5.00
C=CC(=O)N1CC[C@H](C(=O)N(C)[C@H](C(=O)N[C@H]2Cc3cc(O)cc(c3)-c3ccc4c(c3)c(c(-c3cc(C#N)cnc3COC)n4CC)CC(C)(C)COC(=O)[C@@H]3CCCN(N3)C2=O)C(C)C)C1; 5.00 to 6.00

Could you now look at the following compound, please?
Output measured pIC50 for this item: C=CC(=O)Nc1cnc(C(=O)N(C)[C@H](C(=O)N[C@H]2Cc3cc(O)cc(c3)-c3ccc4c(c3)c(c(-c3cccnc3[C@H](C)OC)n4CC)CC(C)(C)COC(=O)[C@@H]3CCCN(N3)C2=O)C(C)C)s1 (atropisomer, axis not shown) 5.00 to 6.00

* * *

targetUnderTest: K-Ras G13C (Homo sapiens (Human), UniProt P01116+P62937, G13C)
assaySummary: Ras-Raf (BRAF RBD) disruption / FRET / MOA assay, KRAS G13C
Format: biochemical
conditionNotes: KRAS G13C; Ras-Raf disruption/FRET/MOA assay; read-out: IC50* KRAS G13C FRET data
pIC50: −log10 of the molar value.
Quick reference for pIC50 among some compounds

# annotated cases, reported pIC50 shown
C=CC(=O)N1CCC2(C1)OCN([C@H](C(=O)N[C@H]1Cc3cccc(c3)-c3ccc4c(c3)c(c(-c3cccnc3[C@H](C)OC)n4CC)CC(C)(C)COC(=O)[C@@H]3CCCN(N3)C1=O)C(C)C)C2=O (some centres unmarked); 6.00 to 7.00
CCn1c(-c2cccnc2[C@H](C)OC)c2c3cc(ccc31)-c1cccc(c1)C[C@H](NC(=O)[C@H](C(C)C)N(C)C(=O)[C@H]1CCN(C(=O)C#CC(C)(C)N3CCCC3)C1)C(=O)N1CCC[C@H](N1)C(=O)OCC(C)(C)C2 (atropisomer, axis not shown); 5.00 to 6.00
C=CC(=O)N1CC[C@H](C(=O)N(C)[C@H](C(=O)N[C@H]2Cc3cc(O)cc(c3)-c3ccc4c(c3)c(c(-c3cnccc3[C@@H](OC)C3CC3)n4CC)CC(C)(C)COC(=O)[C@@H]3CCCN(N3)C2=O)C(C)C)C1; < 5.00
CCn1c(-c2cccnc2[C@H](C)OC)c2c3cc(ccc31)-c1cccc(c1)C[C@H](NC(=O)[C@H](C(C)C)N(C)C(=O)[C@H]1CCN(C(=O)/C=C/CF)C1)C(=O)N1CCC[C@H](N1)C(=O)OCC(C)(C)C2; 6.00 to 7.00
C=CC(=O)N1CC[C@H](C(=O)N(C)[C@H](C(=O)NC2C[C@@H]3CN(CCO3)c3ccc4c(c3)c(c(-c3cccnc3[C@H](C)OC)n4CC)CC(C)(C)COC(=O)[C@@H]3CC(Br)CN(N3)C2=O)C(C)C)C1 (some centres unmarked); < 5.00
C=CC(=O)N1CC(OCC(C(=O)N[C@H]2Cc3cccc(c3)-c3ccc4c(c3)c(c(-c3cccnc3[C@H](C)OC)n4CC)CC(C)(C)COC(=O)[C@@H]3CCCN(N3)C2=O)C(C)C)C1 (mixture of isomers) [Example A484]; 5.00 to 6.00

Output measured pIC50 for this item: CCn1c(-c2cccnc2[C@H](C)OC)c2c3cc(ccc31)-c1cccc(c1)C[C@H](NC(=O)[C@@H](COC1CN(C(=O)C#CC(C)(C)N(C)CCO)C1)C(C)C)C(=O)N1CCC[C@H](N1)C(=O)OCC(C)(C)C2 (atropisomer, axis not shown) 5.00 to 6.00

Output measured pIC50 for this item: CCn1c(-c2cccnc2[C@H](C)OC)c2c3cc(ccc31)-c1csc(n1)C[C@H](NC(=O)C[C@@H]1COC3(CN(C(=O)C#CC(C)(C)N(C)C)C3)O1)C(=O)N1CCC[C@H](N1)C(=O)OCC(C)(C)C2 (atropisomer, axis not shown) 5.00 to 6.00

* * *

targetUnderTest: KRAS G13D (Homo sapiens (Human), UniProt P01116+P62937, G13D)
Sequence (P01116-2 other isoform, or with tags, fused parts or gaps G13D, one chain of several): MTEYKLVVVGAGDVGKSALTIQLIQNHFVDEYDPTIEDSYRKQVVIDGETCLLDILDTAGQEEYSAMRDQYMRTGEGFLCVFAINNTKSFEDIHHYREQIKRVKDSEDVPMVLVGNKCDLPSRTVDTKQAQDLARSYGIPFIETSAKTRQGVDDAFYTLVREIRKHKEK
assaySummary: Ras-Raf (BRAF RBD) disruption / FRET / MOA assay, KRAS G13D
Assay type: biochemical
conditionNotes: read-out: IC50* KRAS G13D FRET data
pIC50: −log10 of the molar value.
propertyLabel: pIC50

# annotated cases, reported pIC50 shown
CCn1c(-c2cccnc2[C@H](C)OC)c2c3cc(ccc31)-c1csc(n1)C[C@H](NC(=O)[C@H](F)COC1CN(C(=O)C#CC(C)(C)N(C)C)C1)C(=O)N1CCC[C@H](N1)C(=O)OCC(C)(C)C2 (atropisomer, axis not shown); < 5.00
C=CC(=O)N1CCO[C@H]2CN(C(=O)N(C)[C@H](C(=O)N[C@H]3Cc4nc(cs4)-c4ccc5c(c4)c(c(-c4cccnc4[C@H](C)OC)n5CC)CC(C)(C)COC(=O)[C@@H]4CCCN(N4)C3=O)C(C)C)C[C@H]21 (atropisomer, axis not shown); 5.00 to 6.00
C=CC(=O)N1CC[C@](C#N)(C(=O)N(C)[C@H](C(=O)N[C@H]2Cc3cccc(c3)-c3ccc4c(c3)c(c(-c3cccnc3[C@H](C)OC)n4CC)CC(C)(C)COC(=O)[C@@H]3CCCN(N3)C2=O)C(C)C)C1 (atropisomer, axis not shown); 5.00 to 6.00
C=CC(=O)N1CC[C@H](C(=O)N(C)[C@H](C(=O)N[C@H]2Cc3cccc(c3)-c3ccc4c(c3)c(c(-c3cccnc3[C@H](C)OC)n4CC)CC(C)(C)COC(=O)[C@@H]3CCCN(N3)C2=O)C(C)C)[C@H]1C (atropisomer, axis not shown); 5.00 to 6.00
C=CC(=O)N1CC2(CCN2C(=O)N(C)[C@H](C(=O)N[C@H]2Cc3nc(cs3)-c3ccc4c(c3)c(c(-c3cccnc3[C@H](C)OC)n4CC)CC(C)(C)COC(=O)[C@@H]3CCCN(N3)C2=O)C(C)C)C1 (atropisomer, axis not shown); 6.00 to 7.00
CCn1c(-c2cccnc2[C@H](C)OC)c2c3cc(ccc31)-c1nc(nn1C)C[C@H](NC(=O)[C@@H](COC1CN(C(=O)C#CC(C)(C)N(C)C)C1)C(C)C)C(=O)N1CCC[C@H](N1)C(=O)OCC(C)(C)C2 (atropisomer, axis not shown); 5.00 to 6.00
C=CC(=O)Nc1csc(C(=O)N(C)[C@H](C(=O)N[C@H]2Cc3cc(O)cc(c3)-c3ccc4c(c3)c(c(-c3cccnc3[C@H](C)OC)n4CC)CC(C)(C)COC(=O)[C@@H]3CCCN(N3)C2=O)C(C)C)n1 (atropisomer, axis not shown); 5.00 to 6.00
CCn1c(-c2cccnc2[C@H](C)OC)c2c3cc(ccc31)-c1cccc(c1)C[C@H](NC(=O)[C@H](C(C)C)N(C)C(=O)N1CCC13CN(C(=O)C#CC(C)(C)N(C)C)C3)C(=O)N1CCC[C@H](N1)C(=O)OCC(C)(C)C2; 6.00 to 7.00

Output measured pIC50 for this item: CCn1c(-c2cccnc2[C@H](C)OC)c2c3cc(ccc31)-c1cccc(c1)C[C@H](NC(=O)[C@@H](COC1CN(C(=O)C#CC(C)(C)N3CCC3)C1)C(C)C)C(=O)N1CCC[C@H](N1)C(=O)OCC(C)(C)C2 (atropisomer, axis not shown) < 5.00

Output measured pIC50 for this item: `CO[C@@H](C)c1ncccc1-c1nc2ccc3cn2c1CC(C)(C)COC(=O)[C@@H]1CCCN(N1)C(=O)[C@@H](NC(=O)[C@H](C(C)C)N(C)C(=O)[C@H]1CCN(C(=O)C#CC(C)(C)N(C)C)C1)Cc1cccc-3c1` < 5.00

Output measured pIC50 for this item: C=CC(=O)N1CC[C@]2(CCN2C(=O)N(C)[C@H](C(=O)N[C@H]2Cc3nc(cs3)-c3ccc4c(c3)c(c(-c3cccnc3[C@H](C)OC)n4CC)CC(C)(C)COC(=O)[C@@H]3CCCN(N3)C2=O)C(C)C)C1 (atropisomer, axis not shown) 6.00 to 7.00

Output measured pIC50 for this item: C=CC(=O)N1CC[C@H](C(=O)N(C)[C@H](C(=O)N[C@H]2Cc3cc(O)cc(c3)-c3ccc4c(c3)c(c(-c3cccnc3[C@@H](OC)C3CC3)n4CC)CC(C)(C)COC(=O)[C@@H]3CCCN(N3)C2=O)C(C)C)C1 (atropisomer, axis not shown) [Example A206] 5.00 to 6.00

Output measured pIC50 for this item: `C#CC(=O)N1CC[C@H](C(=O)N(C)[C@H](C(=O)N[C@H]2Cc3cc(O)cc(c3)-c3ccc4c(c3)c(c(-c3cnccc3[C@H](C)OC)n4CC)CC(C)(C)COC(=O)[C@@H]3CCCN(N3)C2=O)C(C)C)C1` 6.00 to 7.00

Output measured pIC50 for this item: C=CC(=O)N1CC2(CCN2C(=O)N(C)[C@H](C(=O)N[C@H]2Cc3cccc(c3)-c3ccc4c(c3)c(c(-c3cccnc3[C@H](C)OC)n4CC)CC(C)(C)COC(=O)[C@@H]3CCCN(N3)C2=O)C(C)C)C1 (atropisomer, axis not shown) 6.00 to 7.00

Output measured pIC50 for this item: `CC#CC(=O)N1CC[C@H](C(=O)N(C)[C@H](C(=O)N[C@H]2Cc3nc(cs3)-c3ccc4c(c3)c(c(-c3cccnc3[C@H](C)OC)n4C(C)=O)CC(C)(C)COC(=O)[C@@H]3CCCN(N3)C2=O)C(C)C)C1` < 5.00
